Target: EGFR Del19/C797S (Homo sapiens, UniProt P00533, C797S/DEL746-750)
Sequence (P00533 with tags, fused parts or gaps DEL746-750/C797S): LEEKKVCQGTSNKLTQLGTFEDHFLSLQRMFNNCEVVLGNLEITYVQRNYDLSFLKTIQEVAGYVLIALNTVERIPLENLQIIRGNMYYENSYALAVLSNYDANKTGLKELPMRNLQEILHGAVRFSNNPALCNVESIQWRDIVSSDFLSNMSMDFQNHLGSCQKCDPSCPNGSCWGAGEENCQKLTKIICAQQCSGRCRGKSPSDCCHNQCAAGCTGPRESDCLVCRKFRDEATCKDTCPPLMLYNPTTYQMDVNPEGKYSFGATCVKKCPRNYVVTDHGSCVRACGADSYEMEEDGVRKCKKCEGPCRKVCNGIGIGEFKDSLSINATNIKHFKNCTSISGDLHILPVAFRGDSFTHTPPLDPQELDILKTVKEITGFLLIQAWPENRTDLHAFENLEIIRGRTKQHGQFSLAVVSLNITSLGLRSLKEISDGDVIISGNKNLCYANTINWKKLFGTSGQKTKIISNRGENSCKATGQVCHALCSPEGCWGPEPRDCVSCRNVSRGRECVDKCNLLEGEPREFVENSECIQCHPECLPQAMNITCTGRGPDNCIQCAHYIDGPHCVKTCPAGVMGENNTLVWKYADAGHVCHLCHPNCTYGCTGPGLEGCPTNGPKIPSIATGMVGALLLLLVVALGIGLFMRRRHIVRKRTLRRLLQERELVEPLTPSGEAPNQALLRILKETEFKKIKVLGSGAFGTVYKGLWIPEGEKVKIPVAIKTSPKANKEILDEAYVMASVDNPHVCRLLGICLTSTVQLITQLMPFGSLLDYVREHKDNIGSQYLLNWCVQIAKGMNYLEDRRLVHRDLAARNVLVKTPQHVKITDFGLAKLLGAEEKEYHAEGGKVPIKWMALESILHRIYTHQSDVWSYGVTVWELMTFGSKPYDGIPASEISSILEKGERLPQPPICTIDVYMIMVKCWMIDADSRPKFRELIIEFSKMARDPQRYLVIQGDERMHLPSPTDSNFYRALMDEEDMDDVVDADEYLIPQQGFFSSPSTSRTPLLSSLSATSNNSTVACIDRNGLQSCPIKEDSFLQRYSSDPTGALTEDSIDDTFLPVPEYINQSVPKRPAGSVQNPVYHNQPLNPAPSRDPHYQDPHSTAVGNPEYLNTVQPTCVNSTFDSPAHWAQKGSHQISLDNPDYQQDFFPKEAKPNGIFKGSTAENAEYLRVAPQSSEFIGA
Test: Biochemical EGFR kinase inhibition assay (Lance Ultra TR-FRET), double mutant del19/C797S
Conditions: IC50 Del19/C797S (nM), 100 μM ATP
Protocol: Biochemical EGFR kinase assays were conducted using Lance Ultra time-resolved fluorescence resonance energy transfer (TR-FRET) technology from Perkin-Elmer. […] Each kinase reactions were incubated at room temperature for 1 hour and then stopped by the addition of 4 μL of stop solution (10 mM EDTA). […] After 60 minutes incubation at room temperature the LANCE signal was measured on an EnVision Multilabel Reader (Perkin-Elmer). […]
Task for the reader: assign each of the following compounds its reported IC50.
Numbers only, in nM.

- Compound: "CN(C)CC1(C)CCN(c2cc(Nc3ccnc(-c4cnn(S(=O)(=O)C5CC5)c4)n3)ncc2C#CC2(C)CC2)CC1 [Example 406]"
  Subject Of Test: "EGFR Del19/C797S (Homo sapiens, UniProt P00533, C797S/DEL746-750)"
  IC50 (nM): 4.3
- Compound: "CC(C)(O)[C@H]1CC[C@@H](Nc2cc(Nc3ccnc(-c4cnn(S(=O)(=O)C5CC5)c4)n3)ncc2C#Cc2cnn(C(F)(F)F)c2)CC1 [Example 337]"
  Subject Of Test: "EGFR Del19/C797S (Homo sapiens, UniProt P00533, C797S/DEL746-750)"
  IC50 (nM): 325
- Compound: "O=S(=O)(C1CC1)n1cc(-c2nccc(Nc3cc(N4CCCC(O)C4)c(C#Cc4cnn(CC(F)(F)F)c4)cn3)n2)cn1 (stereo not shown) [Example 343]"
  Subject Of Test: "EGFR Del19/C797S (Homo sapiens, UniProt P00533, C797S/DEL746-750)"
  IC50 (nM): 19.2
- Compound: "Cn1cc(C#Cc2cnc(Nc3ccnc(-c4cnn(S(=O)(=O)C5CC5)c4)n3)cc2N2CC[C@@H](O)C2)cn1 [Example 31]"
  Subject Of Test: "EGFR Del19/C797S (Homo sapiens, UniProt P00533, C797S/DEL746-750)"
  IC50 (nM): 6.5
- Compound: "CC1(CO)CCN(c2cc(Nc3ccnc(-c4cnn(S(=O)(=O)C5CC5)c4)n3)ncc2C#CCC2(O)COC2)CC1 [Example 286]"
  Subject Of Test: "EGFR Del19/C797S (Homo sapiens, UniProt P00533, C797S/DEL746-750)"
  IC50 (nM): 2.2

Please report IC50 for every entry that follows.
1. CC1(CO)CCN(c2cc(Nc3ccnc(-c4cnn(S(=O)(=O)C5CC5)c4)n3)ncc2C#Cc2ccccc2F)CC1 [Example 257]
2. CNCCC1CCN(c2cc(Nc3ccnc(-c4cnn(S(=O)(=O)C5CC5)c4)n3)ncc2C#Cc2cnn(C)c2)CC1 [Example 153]

Result:
[10.7, 0.3]

###

Biological target: EGFR Del19/C797S (Homo sapiens, UniProt P00533, C797S/DEL746-750)
Test: Biochemical EGFR kinase inhibition assay (Lance Ultra TR-FRET), double mutant del19/C797S
Conditions: ATP at Km; read-out: IC50 Del19/C797S (nM), Km ATP
Task for the reader: assign each of the following compounds its reported IC50.
Numbers only, in nM.

# annotated cases, reported IC50 shown
- Compound: "CC1(CO)CCN(c2cc(Nc3ccnc(-c4cnn(S(=O)(=O)C5CC5)c4)n3)ncc2C#Cc2csc(CN3CCOCC3)n2)CC1 [Example 189]"
  Subject Of Test: "EGFR Del19/C797S (Homo sapiens, UniProt P00533, C797S/DEL746-750)"
  Test Readout: "IC50"
  Measured: 2.1
- Compound: "CN(C)CCC1CCN(c2cc(Nc3ccnc(-c4cnn(S(=O)(=O)C5CC5)c4)n3)ncc2C#Cc2cnn(CC(F)F)c2)CC1 [Example 303]"
  Subject Of Test: "EGFR Del19/C797S (Homo sapiens, UniProt P00533, C797S/DEL746-750)"
  Test Readout: "IC50"
  Measured: 0.4
- Compound: "CC1(CO)CCN(c2cc(Nc3ccnc(-c4cnn(S(=O)(=O)C5CC5)c4)n3)ncc2C#Cc2ccncc2)CC1 [Example 258]"
  Subject Of Test: "EGFR Del19/C797S (Homo sapiens, UniProt P00533, C797S/DEL746-750)"
  Test Readout: "IC50"
  Measured: 0.7
- Compound: "C=CC#Cc1cnc(Nc2ccnc(-c3cnn(S(=O)(=O)C4CC4)c3)n2)cc1N1CCC(C)(CO)CC1 [Example 277]"
  Subject Of Test: "EGFR Del19/C797S (Homo sapiens, UniProt P00533, C797S/DEL746-750)"
  Test Readout: "IC50"
  Measured: 1.4
- Compound: "O=S(=O)(C1CC1)n1cc(-c2nccc(Nc3cc(N[C@H]4CC[C@@H](O)CC4)c(C#CC4(O)CCCCC4)cn3)n2)cn1 [Example 174]"
  Subject Of Test: "EGFR Del19/C797S (Homo sapiens, UniProt P00533, C797S/DEL746-750)"
  Test Readout: "IC50"
  Measured: 11

Please report IC50 for every entry that follows.
1. CC(C)(O)[C@H]1CC[C@@H](Nc2cc(Nc3ccnc(-c4cnn(S(=O)(=O)C5CC5)c4)n3)ncc2C#Cc2cnn(CC(F)F)c2)CC1 [Example 325]
2. CNCCC1CCN(c2cc(Nc3ccnc(-c4cnn(S(=O)(=O)C5CC5)c4)n3)ncc2C#Cc2cnn(C)c2)CC1 [Example 153]
3. O=S(=O)(C1CC1)n1cc(-c2nccc(Nc3cc(N[C@H]4CC[C@@H](O)CC4)c(C#Cc4ncc(CN5CCOCC5)cn4)cn3)n2)cn1 [Example 194]
4. CC1(CO)CCN(c2cc(Nc3ccnc(-c4cnn(S(=O)(=O)C5CC5)c4)n3)ncc2C#Cc2ccc(CN3CCOCC3)cn2)CC1 [Example 185]
5. CC1(CO)CCN(c2cc(Nc3ccnc(-c4cnn(S(=O)(=O)C5CC5)c4)n3)ncc2C#Cc2cccc(C(=O)N3CCOCC3)c2)CC1 [Example 261]
6. CC1(CO)CCN(c2cc(Nc3ccnc(-c4cnn(S(=O)(=O)C5CC5)c4)n3)ncc2C#Cc2ccccn2)CC1 [Example 259]
7. CC1(CO)CCN(c2cc(Nc3ccnc(-c4cnn(S(=O)(=O)C5CC5)c4)n3)ncc2C#Cc2ccc(CN3CCOCC3)cc2)CC1 [Example 253]

Result:
1: 6.2; 2: 0.3; 3: 2.2; 4: 0.5; 5: 1.3; 6: 0.5; 7: 4.2

Please report IC50 for every entry that follows.
1. O=S(=O)(C1CC1)n1cc(-c2nccc(Nc3cc(NC4CCC(CO)CC4)c(C#Cc4cnn(C5CC5(F)F)c4)cn3)n2)cn1 (stereo not drawn) [Example 327]
2. CC1(CO)CCN(c2cc(Nc3ccnc(-c4cnn(S(C)(=O)=O)c4)n3)ncc2C#Cc2cnn(C(F)(F)F)c2)CC1 [Example 268]
3. Cn1cnc(C#Cc2cnc(Nc3ccnc(-c4cnn(S(=O)(=O)C5CC5)c4)n3)cc2N[C@H]2CC[C@@H](O)CC2)n1 [Example 167]
4. CC1(C#Cc2cnc(Nc3ccnc(-c4cnn(S(=O)(=O)C5CC5)c4)n3)cc2N2CCC(C)(CO)CC2)CCOCC1 [Example 183]
5. CN(C)CC1CCN(c2cc(Nc3ccnc(-c4cnn(S(=O)(=O)C5CC5)c4)n3)ncc2C#Cc2cnn(C3CC3)c2)CC1 [Example 298]
6. CC1(CO)CCN(c2cc(Nc3ccnc(-c4cnn(S(=O)(=O)C5CC5)c4)n3)ncc2C#Cc2ncc(CN3CCOCC3)cn2)CC1 [Example 193]
7. O=S(=O)(C1CC1)n1cc(-c2nccc(Nc3cc(N[C@H]4CC[C@@H](CO)CC4)c(C#Cc4cnn(C(F)F)c4)cn3)n2)cn1 [Example 308]

Result:
1: 1.6; 2: 26.6; 3: 81.8; 4: 11.7; 5: 5.3; 6: 0.4; 7: 1.6

Please report IC50 for every entry that follows.
1. CC(C)Nc1cc(Nc2ccnc(-c3cnn(S(=O)(=O)C4CC4)c3)n2)ncc1C#CCCCC(=O)N1CCOCC1 [Example 208]
2. O=S(=O)(C1CC1)n1cc(-c2nccc(Nc3cc(NC[C@H]4CC[C@@H](O)C4)c(C#Cc4cnn(C(F)F)c4)cn3)n2)cn1 [Example 306]
3. COC1(C)CCN(c2cc(Nc3ccnc(-c4cnn(S(=O)(=O)C5CC5)c4)n3)ncc2C#Cc2cccnc2)CC1 [Example 281]
4. O=S(=O)(C1CC1)n1cc(-c2nccc(Nc3cc(N[C@@H]4CCC[C@H](O)C4)c(C#Cc4ccc(CN5CCOCC5)cc4)cn3)n2)cn1 [Example 160]
5. CC(C)Nc1cc(Nc2ccnc(-c3cnn(S(=O)(=O)C4CC4)c3)n2)ncc1C#CC1CCOCC1 [Example 206]

Result:
[56, 3.4, 17, 4.1, 69.1]
